Entries and their measured yeast fitness follow.
B1: tRNA (parent)
chain: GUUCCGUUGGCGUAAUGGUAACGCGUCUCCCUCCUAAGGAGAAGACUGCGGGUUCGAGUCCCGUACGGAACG

# Variants of: B1
# Assay explanation: yeast fitness relative to wild type (ratio to wild type); higher = fitter; tRNA-Arg(CCU), competitive growth, 37 C, YPD
Variants at the floor of the assay were thinned out.
Measure: yeast fitness

[
  {
    "Sequence content": "GUUCCGUUGGCGAAAUGGUAACGCGUCUCCCUCCUAAGGAGAAGACUGCGGGUUUGAGUCCCGUCCGGAACG [U13A C55U A65C]",
    "Limit qualifier": "=",
    "Reported measurement": 0.596
  },
  {
    "Sequence content": "GUUCCGUUGGCGUAAUGGUAACGCGUCUCCCUCCUAAGGAGAAGACUACGGGUUCGCGUCCCGUACGGAACG [G48A A57C]",
    "Limit qualifier": "=",
    "Reported measurement": 0.643
  },
  {
    "Sequence content": "GUUCCGUUGGCGUAAUGGUGAUGCGUCUCCCUCCUAAGGAGAAGACUGCCGGUUCGAGUCCCCUACCGAACG [A20G C22U G50C G63C G67C]",
    "Limit qualifier": "≤",
    "Reported measurement": 0.5
  },
  {
    "Sequence content": "GUUCCGCUGGCGUAAUGGUAAUGCGUCUGCCUCCUAAGGAGAAGACUGCGGGUUCAAGUCCCGUACGGAUCG [U7C C22U C29G G56A A70U]",
    "Limit qualifier": "≤",
    "Reported measurement": 0.5
  },
  {
    "Sequence content": "GUUUCGUUGGCGUAAUGGUAACGCGUCUCCCUCCUUAGGACAAGACUGCGGGUUUGAGUCCCGCACGGAACG [C4U A36U G41C C55U U64C]",
    "Limit qualifier": "=",
    "Reported measurement": 0.587
  }
]

Origin of measurements: the RNAGym collection of RNA variant scans (doi:10.1126/science.aae0568)
